Tested on: RPMI-8226
Experiment: NCI tumour cell line growth inhibition, 48 h
Activity calls are given as the source filed them. No stated cut-off is given here; in the data, active = GI50 up to about 1.1 µM and inactive = higher.
For each record, write down the corresponding GI50.

Request: Consider the molecule CCCCC(=C=C(C)CO)C1CCCN1C(=O)OC(C)(C)C (centres undefined) . State its measured GI50.
Response: 13.9 µM (inactive)

Request: Consider the molecule COC(=O)C1=C(O)C(C(=O)OC)[C@]2(O)[C@H](C(=O)OC)[C@H]1C[C@@H](c1ccc(Cl)cc1Cl)[C@H]2C(=O)OC (some centres undefined) . State its measured GI50.
Response: 1.75 µM (inactive)

Request: Consider the molecule CCOC(=O)C(NC(=O)c1ccccc1)(Nc1ccc(S(=O)(=O)Nc2cc(C)nc(C)n2)cc1)C(F)(F)F (centres undefined) . State its measured GI50.
Response: > 100 µM (inactive)

Request: Consider the molecule `O=C(CCN1CC2CCC(CC2)C1)c1cccs1` . State its measured GI50.
Response: 1.85 µM (inactive)

Request: Consider the molecule `OCCCCCNc1c2ccccc2nc2ccccc12` . State its measured GI50.
Response: 3.44 µM (inactive)

Request: Consider the molecule CC1(C)[C@@H]2C[C@H]1C(Cc1cccc(C[C@H]3c4cc(-c5ccccn5)ncc4[C@H]4C[C@@H]3C4(C)C)c1)c1cc(-c3ccccn3)ncc12 (some centres undefined) . State its measured GI50.
Response: 1.39 µM (inactive)

Request: Consider the molecule `O=C(O)c1c2c(c(C(=O)O)c3ccccc13)-c1ccccc1-2` . State its measured GI50.
Response: 40.2 µM (inactive)

Request: Consider the molecule O=C1NC2c3c(I)sc(I)c3/C(=N\O)C2O1 (centres undefined) . State its measured GI50.
Response: 67.9 µM (inactive)

Request: Consider the molecule S=C(Nc1ccccc1)Nc1ccccc1SC(/C=C/NNC1=NN=C(c2ccccc2)C(c2ccccc2)N1)c1ccccc1 (centres undefined) . State its measured GI50.
Response: 59 µM (inactive)
